Target: human mGlu5a receptor (Homo sapiens (Human))
Assay: MPEP binding assay
Details: [3H]MPEP 2 nM, 1 h at 4° C., EBNA cell membranes
Procedure: For binding experiments, cDNA encoding human mGlu 5a receptor was transiently transfected into EBNA cells using a procedure described by Schlaeger and Christensen [Cytotechnology 15:1-13 (1998)]. […] Saturation isotherms were determined by addition of twelve [^3H]MPEP concentrations (0.04-100 nM) to these membranes (in a total volume of 200 μl) for 1 h at 4° C. […]
This listing pairs compounds with measured log10 Ki.
measurement.type: log10 Ki (log10 of the value in nM)

# compound, readout.number
data = [
    ("CC1(C)CCCN(C(=O)c2ncc(C#Cc3ccccc3)cn2)C1 [Ref. 1 Ex. 46, reference compound]", 2.50),
    ("CC1(C)COCCN1C(=O)c1ccc(C#Cc2cccc(Cl)c2)cn1 [Example 3]", 1.36),
    ("CC1(C)COCCN1C(=O)c1ccc(C#Cc2cccc(F)c2)cn1 [Example 1]", 1.86),
    ("CC1(C)CN(C(=O)c2ccc(C#Cc3cccc(F)c3)cn2)CCO1 [Ref. 1 Ex. 35, reference compound]", 2.30),
    ("CC1(C)COCCN1C(=O)c1ncc(C#Cc2cccc(Cl)c2)cn1 [Example 4]", 1.83),
]

* * *

target: human mGlu5a receptor (Homo sapiens (Human), UniProt P41594); assay: Intracellular Ca2+ mobilization assay (mGlu5 PAM assay); assay type: cell-based; settings: PAM = positive allosteric modulator, NAM = negative allosteric modulator
Sequence (P41594 other isoform, or with tags, fused parts or gaps): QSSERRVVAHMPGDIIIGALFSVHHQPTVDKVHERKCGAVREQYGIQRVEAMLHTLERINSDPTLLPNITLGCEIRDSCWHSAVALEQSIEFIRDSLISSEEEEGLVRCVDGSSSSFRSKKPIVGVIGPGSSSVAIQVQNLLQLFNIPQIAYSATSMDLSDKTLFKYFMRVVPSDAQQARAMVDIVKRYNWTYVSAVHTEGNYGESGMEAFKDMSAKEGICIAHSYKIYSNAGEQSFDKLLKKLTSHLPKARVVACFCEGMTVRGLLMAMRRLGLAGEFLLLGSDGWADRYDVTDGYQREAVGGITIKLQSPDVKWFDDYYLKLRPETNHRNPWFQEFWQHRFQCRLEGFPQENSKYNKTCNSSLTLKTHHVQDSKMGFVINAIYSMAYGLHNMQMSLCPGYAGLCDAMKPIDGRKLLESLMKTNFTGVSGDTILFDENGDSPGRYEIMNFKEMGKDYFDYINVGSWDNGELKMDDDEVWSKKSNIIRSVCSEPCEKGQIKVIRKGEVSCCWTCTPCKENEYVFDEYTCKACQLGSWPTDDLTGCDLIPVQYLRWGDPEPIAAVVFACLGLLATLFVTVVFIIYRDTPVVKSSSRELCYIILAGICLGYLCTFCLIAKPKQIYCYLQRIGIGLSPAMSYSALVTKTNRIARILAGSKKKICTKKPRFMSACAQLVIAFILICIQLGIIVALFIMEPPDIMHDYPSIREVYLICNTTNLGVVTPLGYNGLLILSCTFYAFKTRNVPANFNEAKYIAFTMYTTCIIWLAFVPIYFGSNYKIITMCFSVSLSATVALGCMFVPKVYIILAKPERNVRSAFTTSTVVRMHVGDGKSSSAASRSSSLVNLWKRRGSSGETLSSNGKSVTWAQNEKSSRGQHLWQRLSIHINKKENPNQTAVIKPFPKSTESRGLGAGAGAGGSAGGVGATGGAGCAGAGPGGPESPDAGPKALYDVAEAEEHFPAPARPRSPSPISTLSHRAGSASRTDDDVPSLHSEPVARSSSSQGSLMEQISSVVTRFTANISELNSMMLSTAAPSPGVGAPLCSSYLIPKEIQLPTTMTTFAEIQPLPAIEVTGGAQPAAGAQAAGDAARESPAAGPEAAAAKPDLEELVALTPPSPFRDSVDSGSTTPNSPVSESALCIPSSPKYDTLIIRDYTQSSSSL
measurement.type: Activity profile

# compound, measurement.type, result
rows = [
    ("CC1(C)CCCN(C(=O)c2ncc(C#Cc3ccccc3)cn2)C1 [Ref. 1 Ex. 46, reference compound]", "Activity profile", "PAM"),
    ("CC1(C)COCCN1C(=O)c1ccc(C#Cc2cccc(Cl)c2)cn1", "Activity profile", "NAM"),
    ("CC1(C)COCCN1C(=O)c1ncc(C#Cc2cccc(Cl)c2)cn1", "Activity profile", "NAM"),
    ("CC1(C)COCCN1C(=O)c1ccc(C#Cc2cccc(F)c2)cn1", "Activity profile", "NAM"),
    ("CC1(C)CN(C(=O)c2ccc(C#Cc3cccc(F)c3)cn2)CCO1 [Ref. 1 Ex. 35, reference compound]", "Activity profile", "PAM"),
]
